Assay: physchem
Conditions: pH 2.84, aqueous buffer

{"Smiles entry": "O=C1CN=C(c2ccccc2Cl)c2cc([N+](=O)[O-])ccc2N1", "solubility / µg/mL": 29}

* * *

Experiment: physchem
Details: pH 6.39, aqueous buffer

{"Smiles entry": "O=C1CN=C(c2ccccc2Cl)c2cc([N+](=O)[O-])ccc2N1", "solubility": "18 µg/mL"}

* * *

Assay: physchem
Details: pH 4.21, aqueous buffer

{"Smiles entry": "O=C1CN=C(c2ccccc2Cl)c2cc([N+](=O)[O-])ccc2N1", "solubility (mg/mL)": 0.018}

* * *

Test: physchem
Conditions: pH 3, aqueous buffer
Assay readout: solubility (µg/mL)

{"Compound": "O=C1CN=C(c2ccccc2Cl)c2cc([N+](=O)[O-])ccc2N1 [Clonazepam, clonazepam]", "Assay readout": "solubility", "Unit annotation": "µg/mL", "Endpoint result": 22}
